From: PubChem BioAssay AID2060507

test system: 519858-162-T-J1-PDC complex spheroid viability; test: Anticancer human tumor 519858-162-T-J1-PDC patient-derived colon adenocarcinoma cell line growth inhibition [GQUAD]; conditions: compound 0.316 µM; hits give low values
RECORDED ENDPOINT: viability, T/C

Worked cases, answers included:
Tell me reported viability, T/C for O=c1[nH]cc(F)c(=O)[nH]1 , tested with 519858-162-T-J1-PDC complex spheroid viability.
95.7%

Tell me reported viability, T/C for CCCS(=O)(=O)Nc1ccc(F)c(C(=O)c2c[nH]c3ncc(-c4ccc(Cl)cc4)cc23)c1F , tested with 519858-162-T-J1-PDC complex spheroid viability.
114%

Tell me reported viability, T/C for Cc1[nH]c2ccccc2c1CCNCc1ccc(/C=C/C(=O)NO)cc1 , tested with 519858-162-T-J1-PDC complex spheroid viability.
50.6%

Tell me reported viability, T/C for Cc1[nH]c2ccc(F)cc2c1-c1nc2c3cccnc3c3ncccc3c2[nH]1 , tested with 519858-162-T-J1-PDC complex spheroid viability.
92.2% [middle of 9 runs]

Now examine the next entry.
Tell me reported viability, T/C for Nc1ccn(C2OC(CO)C(O)C2(F)F)c(=O)n1 (stereo not given) , tested with 519858-162-T-J1-PDC complex spheroid viability.
92.2%

----------
System: 519858-162-T-J1-PDC complex spheroid viability
Assay: Anticancer human tumor 519858-162-T-J1-PDC cell line growth inhibition [GQUAD];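 note: spheroids exposed to compounds for 7 days; 100% = DMSO vehicle control viability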
Settings: second compound 3.16 µM; first compound 0.1 µM; hits give low values
Source text: DNA G-quadruplex Stabilizer Agents in Combinations in Complex Spheroids A high-throughput screen of multi-cell type tumor spheroids was designed to identify active combinations of DNA G-quadruplex stabilizer agents and targeted small molecules. […] Compounds. […] If the clinical Cmax for an agent had not been determined, the highest concentration tested was 10 microM. […]
1 if viability, T/C is below 60%. -1 if not; exact matches included in -1.

Determine if Cc1cccc(N(C)C(=O)C2C(O)CCN2c2nc(C)cc(C(F)(F)F)c2C#N)c1 (stereo not given) + Cc1cnc(CNC(=O)c2c(=O)c3ccc(N4CCCN(C)CC4)nc3n3c2sc2ccccc23)cn1 shows viability, T/C strictly lower than 60%.
1

Determine if COc1ncnc(C2CC2)c1-c1ncc2cnn(Cc3ccc(-c4nc(C(F)(F)F)cn4C(C)C)cc3)c2n1 + Cc1cnc(CNC(=O)c2c(=O)c3ccc(N4CCCN(C)CC4)nc3n3c2sc2ccccc23)cn1 shows viability, T/C strictly lower than 60%.
1

Determine if C=CC(=O)N1CCN(c2nc(=O)n(-c3c(C)ccnc3C(C)C)c3nc(-c4c(O)cccc4F)c(F)cc23)C(C)C1 (stereo not given) + CN(C)c1ccc(Nc2c3ccc(NC(=O)CCN4CCCC4)cc3nc3cc(NC(=O)CCN4CCCC4)ccc23)cc1 shows viability, T/C strictly lower than 60%.
-1

Lab note: next molecule to report on.
Determine if C=CCn1c(=O)c2cnc(Nc3ccc(N4CCN(C)CC4)cc3)nc2n1-c1cccc(C(C)(C)O)n1 + CN(C)c1ccc(Nc2c3ccc(NC(=O)CCN4CCCC4)cc3nc3cc(NC(=O)CCN4CCCC4)ccc23)cc1 shows viability, T/C strictly lower than 60%.
-1

----------
Can you tell me viability, T/C for the items I'm about to list?
test system: 519858-162-T-J1-PDC complex spheroid viability; assay: Anticancer human tumor 519858-162-T-J1-PDC cell line growth inhibition [GQUAD]; conditions: second compound 0.316 µM; first compound 0.0316 µM; hits give low values;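 note: spheroids exposed to compounds for 7 days; 100% = DMSO vehicle control viability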
Give bare numbers, in %.

Worked cases, answers included:
# input molecule: COc1ccc([C@@H](O)c2cc(-c3ncnc4cc(N5CCOCC5)ccc34)c(F)cc2Cl)nn1 + CN(C)c1ccc(Nc2c3ccc(NC(=O)CCN4CCCC4)cc3nc3cc(NC(=O)CCN4CCCC4)ccc23)cc1 ; wanted: its viability, T/C
86.8

# input molecule: Cc1[nH]c2ccccc2c1CCNCc1ccc(/C=C/C(=O)NO)cc1 + Cc1[nH]c2ccc(F)cc2c1-c1nc2c3cccnc3c3ncccc3c2[nH]1 ; wanted: its viability, T/C
113

# input molecule: Cn1ncnc1[C@H]1c2n[nH]c(=O)c3cc(F)cc(c23)N[C@@H]1c1ccc(F)cc1 + Cc1cnc(CNC(=O)c2c(=O)c3ccc(N4CCCN(C)CC4)nc3n3c2sc2ccccc23)cn1 ; wanted: its viability, T/C
72

# input molecule: Cc1cccc(N(C)C(=O)C2C(O)CCN2c2nc(C)cc(C(F)(F)F)c2C#N)c1 (stereo not given) + Cc1cnc(CNC(=O)c2c(=O)c3ccc(N4CCCN(C)CC4)nc3n3c2sc2ccccc23)cn1 ; wanted: its viability, T/C
82.5

State the recorded viability, T/C for every item in the following list.
1. COc1cc(C2c3cc4c(cc3C(OC3OC5COC(C)OC5C(O)C3O)C3COC(=O)C23)OCO4)cc(OC)c1O (stereo not given) + Cc1[nH]c2ccc(F)cc2c1-c1nc2c3cccnc3c3ncccc3c2[nH]1
2. CC(C)n1c(=O)n(C)c2cnc3cc(F)c(-c4ccc(OCCCN5CCCCC5)nc4)cc3c21 + Cc1cnc(CNC(=O)c2c(=O)c3ccc(N4CCCN(C)CC4)nc3n3c2sc2ccccc23)cn1
3. COc1ncnc(C2CC2)c1-c1ncc2cnn(Cc3ccc(-c4nc(C(F)(F)F)cn4C(C)C)cc3)c2n1 + Cc1cnc(CNC(=O)c2c(=O)c3ccc(N4CCCN(C)CC4)nc3n3c2sc2ccccc23)cn1
4. C=CC(=O)N1CCN(c2nc(=O)n(-c3c(C)ccnc3C(C)C)c3nc(-c4c(O)cccc4F)c(F)cc23)C(C)C1 (stereo not given) + CN(C)c1ccc(Nc2c3ccc(NC(=O)CCN4CCCC4)cc3nc3cc(NC(=O)CCN4CCCC4)ccc23)cc1
5. C#Cc1c(F)ccc2cc(O)cc(-c3ncc4c(N5CC6CCC(C5)N6)nc(OCC56CCCN5CC(F)C6)nc4c3F)c12 (stereo not given) + Cc1[nH]c2ccc(F)cc2c1-c1nc2c3cccnc3c3ncccc3c2[nH]1
6. COc1cccc2c1C(=O)c1c(O)c3c(c(O)c1C2=O)CC(O)(C(=O)CO)CC3OC1CC(N)C(O)C(C)O1 (stereo not given) + CN(C)c1ccc(Nc2c3ccc(NC(=O)CCN4CCCC4)cc3nc3cc(NC(=O)CCN4CCCC4)ccc23)cc1

1: 90.6; 2: 66.7; 3: 72.4; 4: 88.3; 5: 104; 6: 88.4

----------
test system: 519858-162-T-J1-PDC complex spheroid viability; test: Anticancer human tumor 519858-162-T-J1-PDC cell line growth inhibition [GQUAD]; details: second compound 0.316 µM; first compound 0.0316 µM; hits give low values;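 note: spheroids exposed to compounds for 7 days; 100% = DMSO vehicle control viability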
Can you tell me viability, T/C for the items I'm about to list?

# input compound: Cn1ncnc1[C@H]1c2n[nH]c(=O)c3cc(F)cc(c23)N[C@@H]1c1ccc(F)cc1 + CN(C)c1ccc(Nc2c3ccc(NC(=O)CCN4CCCC4)cc3nc3cc(NC(=O)CCN4CCCC4)ccc23)cc1 ; wanted: its viability, T/C
84.6%

# input compound: C=CC(=O)N1CCN(c2nc(=O)n(-c3c(C)ccnc3C(C)C)c3nc(-c4c(O)cccc4F)c(F)cc23)C(C)C1 (centres undefined) + Cc1cnc(CNC(=O)c2c(=O)c3ccc(N4CCCN(C)CC4)nc3n3c2sc2ccccc23)cn1 ; wanted: its viability, T/C
54.2%

# input compound: C=CC(=O)N1CCN(c2nc(=O)n(-c3c(C)ccnc3C(C)C)c3nc(-c4c(O)cccc4F)c(F)cc23)C(C)C1 (centres undefined) + Cc1[nH]c2ccc(F)cc2c1-c1nc2c3cccnc3c3ncccc3c2[nH]1 ; wanted: its viability, T/C
76.3%

Further cases:
# input compound: CC(C)n1c(=O)n(C)c2cnc3cc(F)c(-c4ccc(OCCCN5CCCCC5)nc4)cc3c21 + Cc1[nH]c2ccc(F)cc2c1-c1nc2c3cccnc3c3ncccc3c2[nH]1 ; wanted: its viability, T/C
91.5%

----------
test system: 519858-162-T-J1-PDC complex spheroid viability; assay: Anticancer human tumor 519858-162-T-J1-PDC cell line growth inhibition [GQUAD]; settings: second compound 0.1 µM; first compound 0.1 µM; hits give low values;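 note: spheroids exposed to compounds for 7 days; 100% = DMSO vehicle control viability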
Can you tell me viability, T/C for the items I'm about to list?
One number for each entry, in %.

Worked cases, answers included:
# input molecule: CC(=O)O[C@H]1C(=O)[C@@]2(C)[C@H]([C@H](OC(=O)c3ccccc3)[C@]3(O)C[C@H](OC(=O)[C@H](O)[C@@H](NC(=O)c4ccccc4)c4ccccc4)C(C)=C1C3(C)C)[C@]1(OC(C)=O)CO[C@@H]1C[C@@H]2O + CN(C)c1ccc(Nc2c3ccc(NC(=O)CCN4CCCC4)cc3nc3cc(NC(=O)CCN4CCCC4)ccc23)cc1 ; wanted: its viability, T/C
134

# input molecule: CC(C)(O)C1CCC(Nc2ccc3ncc(-c4cccc(C(F)(F)F)c4)n3n2)CC1 (stereo not drawn) + Cc1[nH]c2ccc(F)cc2c1-c1nc2c3cccnc3c3ncccc3c2[nH]1 ; wanted: its viability, T/C
82.5

Now examine the next entry.
# input molecule: C=CCn1c(=O)c2cnc(Nc3ccc(N4CCN(C)CC4)cc3)nc2n1-c1cccc(C(C)(C)O)n1 + Cc1cnc(CNC(=O)c2c(=O)c3ccc(N4CCCN(C)CC4)nc3n3c2sc2ccccc23)cn1 ; wanted: its viability, T/C
96.9
